Biological target: human histamine H3 receptor (Homo sapiens, UniProt Q9Y5N1)
Sequence (Q9Y5N1 whole entry): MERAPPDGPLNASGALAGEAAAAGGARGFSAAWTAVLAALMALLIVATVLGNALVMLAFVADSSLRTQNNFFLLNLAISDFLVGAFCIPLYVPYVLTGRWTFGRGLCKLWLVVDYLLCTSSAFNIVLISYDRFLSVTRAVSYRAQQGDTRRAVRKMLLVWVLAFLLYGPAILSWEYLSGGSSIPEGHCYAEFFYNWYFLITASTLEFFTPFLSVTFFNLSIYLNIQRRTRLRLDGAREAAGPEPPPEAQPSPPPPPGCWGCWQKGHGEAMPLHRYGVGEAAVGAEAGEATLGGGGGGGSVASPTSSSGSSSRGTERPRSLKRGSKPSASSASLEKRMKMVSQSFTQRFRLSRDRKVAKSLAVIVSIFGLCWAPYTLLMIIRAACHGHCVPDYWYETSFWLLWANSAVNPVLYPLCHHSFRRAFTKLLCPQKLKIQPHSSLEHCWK
Assay: H3 GTPγS assay (SPA method), histamine H3 in vitro assay
Type: biochemical
Conditions: membranes of cells expressing human H3; GTPγ[35S] SPA; antagonist testing with reference agonist at EC80 (30 nM); in one embodiment HCl salts tested; read-out: Potency (functional potency as indicated by IC50)

compound | IC50
c1ccc2c(c1)ncn2-c1ccc2c(c1)nc1n2CCN2CCCCC2C1 (stereo not shown) | < 10 nM
c1cn2cc(-c3ccc4c(c3)nc3n4CCCN4CCCCC4C3)ccc2n1 (stereo not shown) [Compound 67] | < 10 nM
N#Cc1ccc(-c2ccc3c(c2)nc2n3CCN3CCCCC3C2)cc1 (stereo not shown) [Compound 8] | < 10 nM
Brc1ccc2c(c1)nc1n2CCCN2CCCC2C1 (stereo not shown) | < 100 nM
